Experimental Target: cGMP-PDE V (Homo sapiens, UniProt O76074)
Assay Summary: biochemical
Parameters: species or system various animal species and man
Experimental Conditions: 0.1 μM; read-out: Percent Inhibition cGMP-PDE V
Metric: inhibition at 0.1 µM (%)

CCc1[nH]n(C2CCCC2)c2nc(-c3cccc(OCc4ccncc4)c3)nc(=O)c1-2
56

[A] CCc1[nH]n(C2CCCC2)c2nc(-c3ccccc3OCCOC)nc(=O)c1-2
[B] CCOC(=O)COc1ccccc1-c1nc2n(C3CCCC3)[nH]c(CC)c-2c(=O)n1
Task: Please state the entry with greater inhibition at 0.1 µM among A and B . Write the label of whichever entry you select.
Result: A
(A: 56%, B: 30%)
